- test-protocol: yeast display, Sf9 membrane polyspecificity reagent, FACS + sequencing; frameworks hold sequencing errors

# seq-text, polyreactivity (PSR sort gate)
measured = [
    ("QVQLVESGGGLVQAGGSLRLSCAASGSIFSFYAMGWYRQAPGKESELVAAISRSGGSTYYADSVKGRFTISRDNAKNTVYLQMNSQKPEDTAVYYCAVYAFSYPRYYYWGQGTQVTVSS", "low polyreactivity"),
    ("QVQIVESGGGLVQAGGSLRLSCAASGRIYRYVMGWYRQAPGKERELVATITGSGGSTYYADSVKGRFTISRDNAKNTAYLQMNSLKPEDTAVYYCAAAGRGSWTTYRFDYWGLGTQVTVSS", "high polyreactivity"),
    ("QVQLVESGGGLVQAGGSLRLSCAASGSIFRLNAMGWYRQAPGKERELVAAISVSGTRTYYADSVKGRFTISRDNAKNIVYLQMNSLKPEDTAVYYCAARVYKGQGKGDYWGQGTQVTVSS", "high polyreactivity"),
    ("QVQLVESGGGLVQAGGSLRISCAASGLTFNAYAMGWYRQAPGKERELLADITTSDGSTFYADSVKGRFTISRDKATNTVYLQMNSLKPEDTAVYYCNADAYGWYSGPWFKWLLWYDYWGQGTQVTVSS", "low polyreactivity"),
    ("QVHLVESGGGLVNAGGTLRLSCAASGSTYSRYAMGWYRQAPVKESELVAAITRSGGSTYYADSVKGRFTISRDNAKNTVYLQMNSLKPEDTAVYYCNRPRLYGGSPYYYWGQGTQVTVSS", "high polyreactivity"),
]

###

- test-protocol: yeast display, Sf9 membrane polyspecificity reagent, FACS + sequencing; frameworks hold sequencing errors

# seq-text, polyreactivity (PSR sort gate)
data = [
    ("HVQLVESGVGLVQAAGSLRLSCAASGLIFRWYAMGWYRQAPVKERELFAAISRGGSTNYADSVKGRFTISRDNAKNTVYLQMNSLKPEDTAVYYCATVYSVRYGGRYYYAFGLYDYWGQGTQVTVSS", "high polyreactivity"),
    ("QVQHVESGGGLVQAGGSLRLSCAASGSTFTAYVMGWYRQAPGKERELVAAISRSGGRTYYADSVKGRFTISRDNAKNTVYLQMNSLKPEDTAVYYCAARSGPLAYDYWGQGTQVTVSS", "high polyreactivity"),
]

###

- test-protocol: yeast display, Sf9 membrane polyspecificity reagent, FACS + sequencing; frameworks hold sequencing errors

# seq-text, polyreactivity (PSR sort gate)
measured = [
    ("QVQLVESGGGLVQAGGSLRLSCAASGFIISNNAMGWYRQAPGKERELVAVINGGGSTYYADSVKGRFTISRDTAKNTVYLQMNSLKPEDTAVYYCNADRFADYDYWGQGTQVTVSS", "low polyreactivity"),
    ("QVQLVESGGGLVQAGGSLRLSCAASGLSFGDYTMGWYRQAPGKERELVAAITGSGASTYYADSVKGRFTISRDNAKNTVYLQMTRLKPEDTAGYYCAAERTPSYRAYDYWGQATQVTVSS", "low polyreactivity"),
]

###

- test-protocol: yeast display, Sf9 membrane polyspecificity reagent, FACS + sequencing; frameworks hold sequencing errors

# seq-text, polyreactivity (PSR sort gate)
data = [
    ("QVQLVESGGGLVQAGGSLRLSCAASGITFSYYAMGWYRQAPGKERELVAAISRTGTSTYYADSVKGRFTISRDNAKNTVYLQMNSLKPEDTAVYYCAARYYYWGQGTQVTVSS", "high polyreactivity"),
    ("QVQLVESGGGLVQAGGSLRLSCASSGSIFLSYTMGWYRKAPGKERELVAAISKRGGSSYYADSVKGRFTISRDNAKNTVYFQMNTLIPEDTAVYYFNADVRYRRRISVTNVYDYWGQGTQVTVSS", "high polyreactivity"),
    ("QVQLVVSGGGLVQAGGSLRLSCAASGSIFYRNAMGWYRQAPGKDRELVAAISFSGGSTYYADSVKARFSISRDNAKNTVYLQMNSLKPEDTAVYYCAAEAYPSWFYVITGFGIYDYWGQGTQGTVSS", "high polyreactivity"),
    ("QVQLVESGGGLVQAGGSLRLSCAASGSPFRGYAMGWYRLAPGKEREFVAAISRRGGTTYYADSVKARFTISRDNAKNTGYLQMNSLKPEDTAVYYCNKVYYQHYLPVDYWGQGTQVTVSS", "high polyreactivity"),
    ("QVQLVESGGGLVQAGGSLRLSCAASGFIFKHYAMGWYRQAPGKERELVAAITSSGGNTYYADSVKGRFTISRDNAKNTVYLQMNSLKPEDTAVYYCNARFRTLYWGQGTQVTVSS", "high polyreactivity"),
    ("QVQLVESGGGLVQAGGSLRLSCAASGSIFGYYAMGWYRQAPGKERELVAVITSSGGGTYYADSVKGRFTISRDNAKNTVYLQMNSLKPEDTAVYYCAKLGTRRYDSWGQGTQVTVSS", "high polyreactivity"),
    ("QVQLVESGGGLVQAGGSLRLSCAGSGSTFHPYAMGWYRQAPGKVRELVAAITWGGGSTYYADSVKGRITISRDNAKNTVYLQMNSLKPEDTAVYYCNAYTLYWPDYDYWGQGTQVTVSS", "low polyreactivity"),
    ("QVQLVESGGGLVQAGGSLRLSCAASGYIYDYNAMGWYRQAPGKERELVAAITFRDGSTYADSVKGRFTISRDNGKNTVYLQMNSLKPEDTAVYYCNRRSQVHSHSKHDDWGQGTQVTVSS", "low polyreactivity"),
    ("QVQLVESGGGLVQAGGSLRLSCAASGSTIPRHAMGWYRQAPGKERELVAAITSGGSTNYADSVKGRFTISRDNAKNTVYLQMNSLKPEDTAVYYCAADVIVRVYYYYYVLMDYWGQGTQVTVSS", "low polyreactivity"),
    ("QVHLVESGGGLVQAGGSLRLSCAATGSIFRPYAMGWYRQAPGKERELVATITWRGGTTYYADSVKGRFTISRDNAKNTVILQMISLKPEDSAVYYCAAYVPFLTSAYDYWGHGTQVTVSS", "low polyreactivity"),
    ("QVQVVESGGGLVQAGGSLRLSCAASGSIFKFNAMGWYRQAPGKERELVAAISYSGGNTDYADSVKGRFTISRDNAKNTVYLQMNSLKPEDTAVYYCAATSYLVLTLEYDYWGQGTQVTVSS", "low polyreactivity"),
    ("QVQLVESGGGLVQAGGSLRLSCAASGFTLYPYAKGWYRQAPGKARELVAAISWSVGSTRYADSVKGRFTISRDNAKNTVYLQMNSLKPEDTAVYYCAARPHGRFSQLRVDWGQGTQVTVSS", "low polyreactivity"),
    ("QVQLVESGGGLVQAGGSLRLSCAASGFTFSRYAMGWYRQAPGKERELVAAITRGGSTNYADSVKGRFTISRDNAKNTVYLQMNSLKPEDTAVYYCAVRIRYSTNAYYYWGQGTQVTVSS", "high polyreactivity"),
    ("QVQLQLSGGDLVQAGRSLRLSCAASGTIYGLTSMGWYRQAQAKEREFVAAITDGGKTNYADSVKGRFTISRDNAKNTVYLQMIRLKPEDTAVYYCAVLFSDDAYYAYWGQGTQVTVSS", "low polyreactivity"),
    ("QVQLVESGGGLVQAGGSLRLSCAASGITFVGNARGWYRQAPGKERELVAGIRGNGGSTYYADSVKGRFTISRDNAKNTVYLQMNSLKPEDTAVYYCAAAAYYADFDYWGQGTQVTVSS", "low polyreactivity"),
    ("QVQLVESGGGLVQAGGSLRLSCAASGFTFKWSAMGWYRPAPGKETELVATITIGGRTNYADSVKGRFTISRDNAKYTVYLQMNSLKPEDTAVYYGATYFVGFRLSDYDYWGQGTQVTVSS", "low polyreactivity"),
    ("QVQLVESGGGLVHAGGTLSLSCADSGFTYVLYGMGWYRQEPGKESELVASITWNGVGTYYADSVKGRFTIARDNAKNTVYLHMNSLKPEDTSVYFCHADDPDLASYLGVDYWGQGSQVTVSS", "high polyreactivity"),
    ("QVQLVESGGCLVQAGGSLRLICAASGRTFIAKAMGWYRQAPGKERELVAVITLNGGSTYYADSVKGRFTISRDNAKSTVYLQMNSLKPEDTAVYYCAAGRYYNLRATHGYWGQGTQVTVSS", "low polyreactivity"),
    ("QVQLLESGGGLVQAGGSLRLTCAASGNIFISYAMAWYRQAPGKERELVAAISRSGGSTYYADSVKGRFTISRDNAKNTVYLQMNSLKPEDTAVYYCAAYIGPGRYGSWGQGTQVTVSS", "high polyreactivity"),
    ("QVQLVESGGGLVQAAGSLRLSCAASGRTFVFYAMGWYRQAPGKERELVAAISDGDRTNYADSVKGRFTISRDNAKNTVYLQMNSLKPEDTAVYYCAADREFWWAVVYTYEYYYWGQGTQVTVSS", "low polyreactivity"),
    ("QVQLVESGGGLVQAGGSLRLSCAASGRTSPYYTMGWYRQAPGKERELVAASGSRTDYADSVKGRFTISRDNAKNTVYLQMNSLKPEDTAVYYCNAYRYRQSSSDKYGYWGQGTQVTVSS", "low polyreactivity"),
]
